Measured growth inhibition by item
- assay-summary: NCI Yeast Anticancer Drug Screen. Data for the CLN2oe strain (AID 163);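 further: 0% = growth of vehicle-only control cultures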
- experimental-setup: S. cerevisiae CLN2oe strain, at 3.7 µM, stronger effect = higher value
About 79,000 compounds went through this panel and 15% of them were active in at least one assay; those are over-represented in the sample as a whole.

compound: COc1ccc(N=CN(C)C)c(C)c1
growth inhibition / %: -34

compound: CC(C)(C)c1ccc(NS(=O)(=O)c2ccc(N)cc2)cc1
growth inhibition / %: 2

compound: C=C(C(=C)n1nnc(C(=O)OC)c1C(=O)OC)n1nnc(C(=O)OC)c1C(=O)OC
growth inhibition / %: -1

compound: Cc1cccc[n+]1C1CCc2c(ccc3ccccc23)C1=O (configuration not stated)
growth inhibition / %: -3

compound: O=C1C=C(c2ccccc2)OC1(c1ccccc1)N1CCOCC1 (configuration not stated)
growth inhibition / %: -4

compound: COc1cc2ccnc(-c3c4ccccc4c(N)c4c(OC)c(OC)ccc34)c2cc1OC
growth inhibition / %: 7

compound: Oc1ccc2c(c1)C(O)CCCC2 (configuration not stated)
growth inhibition / %: -6

compound: O=C1/C(=C/c2ccccc2)CCCC1CN1CCCCC1 (configuration not stated)
growth inhibition / %: 59

compound: CCCCNC1CCC2(SCCS2)c2[nH]c3ccccc3c21 (configuration not stated)
growth inhibition / %: -4

compound: O=C(CC(=O)n1nc(-c2ccccc2)c(N=Nc2ccc(Cl)cc2)c1-c1ccccc1)Nc1cccc(Cl)c1
growth inhibition / %: -10

compound: CCCCCCCCCCCC(O)S(=O)(=O)O (configuration not stated)
growth inhibition / %: -1

compound: O=c1ccc(=O)n(-c2ccccc2)[nH]1
growth inhibition / %: 20

---

Measured growth inhibition by item
- assay-summary: NCI Yeast Anticancer Drug Screen. Data for the rad50EPP+ strain (AID 151);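 further: 0% = growth of vehicle-treated control cultures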
- experimental-setup: S. cerevisiae rad50 mutant strain, at 1.2 µM, stronger effect = higher value
The panel holds about 79,000 compounds, 15% with a hit somewhere; the sample as a whole holds those more often.

compound: Nc1n[n+]([O-])c2ccc(Cl)cc2[n+]1[O-]
growth inhibition [%]: 53

compound: Oc1ccc(-c2nc(-c3ccc(F)cc3)c(-c3ccc4ccccc4n3)[nH]2)cc1
growth inhibition [%]: -43

compound: CCOC1Oc2ccccc2-c2nc(N)ncc21 (stereo unspecified)
growth inhibition [%]: 0

compound: CCCC/C([O-])=C1/C(=O)N(c2ccccc2)N=C1C.CCCC/C([O-])=C1/C(=O)N(c2ccccc2)N=C1C.[Cu+2]
growth inhibition [%]: -1

compound: O=C(O)c1ccc(N2C(=O)C=CC2=O)cc1
growth inhibition [%]: 2

compound: NC(=O)C(=O)NNc1ccccc1
growth inhibition [%]: 9

compound: O=C(O)C1CC(c2ccccc2)=NN1c1ccccc1 (stereo unspecified)
growth inhibition [%]: -17

compound: Cc1cccc[n+]1C1CCc2c(ccc3ccccc23)C1=O (stereo unspecified)
growth inhibition [%]: 6

compound: CCCCN(CCCC)C(=O)/C=C/c1ccccc1
growth inhibition [%]: -7

compound: COC(=O)CC1(O)C(/C=C/c2ccccc2)C(C(=O)OC)C(=O)C(C(=O)OC)C1C(=O)OC (stereo unspecified)
growth inhibition [%]: -7

compound: CC(=O)OCC1OC2OC(=O)NC2C(OC(C)=O)C1OC(C)=O (stereo unspecified)
growth inhibition [%]: -4

---

- assay-summary: NCI Yeast Anticancer Drug Screen. Data for the wt1 strain (AID 149);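 further: 0% = growth of vehicle-treated wt1 cultures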
- experimental-setup: S. cerevisiae wt1 strain (SPY 50644) growth inhibition; at 100.0 µM
About 79,000 compounds went through this panel and 15% of them were active in at least one assay; those are over-represented in the sample as a whole. Activity calls are given as the source filed them. Cut-off read from the data, not from the text of the source: active = growth inhibition above about 70%; inactive = the rest.
Possible outcomes: yes (1) for active, no (0) for inactive

compound: COC(=O)/C=C(/C(=O)OC)C(Cl)(Cl)Cl
label: yes (1)

compound: O=C(CC(C(=O)O)N1CCOCC1)c1ccccc1 (stereo unspecified)
label: no (0)

compound: CN1CCN(C(=O)/C=C/C(=O)c2ccccc2)CC1
label: yes (1)

compound: CCOC(=O)c1[nH]cc(C)c1-c1cccn1-c1ccc(Cl)cc1[N+](=O)[O-]
label: yes (1)

compound: CC[n+]1oc(C(=O)c2ccc(Cl)cc2)c(-c2ccccc2)c1-c1ccccc1.[Cl][Fe]([Cl])([Cl])[Cl]
label: no (0)

compound: CC(C)(C)N=C(NO)c1ccccc1
label: no (0)

Provenance of the data: PubChem BioAssay (NCI)
